Dear all, this message contains pKi results, target or system hCA XII (Homo sapiens).
Answers are plain numbers, as −log10 of the molar value.

Worked examples, 2 compounds total:
>>> measured_value("NS(=O)(=O)c1cccc(NC(=O)c2ccc3[nH]ccc3c2)c1 [Compound 2e]")
7.04
>>> measured_value("NS(=O)(=O)c1ccc(CCNC(=O)c2ccc3cc[nH]c3c2)cc1 [Compound 2m]")
7.07

Provide pKi values for the following items, in order.
1. NS(=O)(=O)c1ccc(CCNC(=O)CCc2c[nH]c3ccccc23)cc1 [Compound 2c]
2. NS(=O)(=O)c1ccccc1NC(=O)c1ccc2cc[nH]c2c1 [Compound 2n]
3. NS(=O)(=O)c1ccc(C(=O)Nc2ccc3[nH]ccc3c2)cc1 [Compound 2o, N-(1H-indol-5-yl)-4-sulfamoylbenzamide]

Solution:
[7.43, 7.43, 7.17]

* * *

Give pKi for every item shown.
target: hCA II (Homo sapiens, UniProt P00918); assay: stopped flow CO2 hydrase assay, hCA II
Answers are plain numbers, as −log10 of the molar value.

Worked examples, 2 compounds total:
>>> measured_value("NS(=O)(=O)c1ccc(CCNC(=O)CCc2c[nH]c3ccccc23)cc1 [Compound 2c]")
8.05
>>> measured_value("NS(=O)(=O)c1ccc(C(=O)Nc2ccc3[nH]ccc3c2)cc1 [Compound 2o, N-(1H-indol-5-yl)-4-sulfamoylbenzamide]")
8.12

Provide pKi values for the following items, in order.
1. NS(=O)(=O)c1ccc(O)c(NC(=O)c2ccc3cc[nH]c3c2)c1 [Compound 2l]
2. NS(=O)(=O)c1ccc(CCNC(=O)c2ccc3cc[nH]c3c2)cc1 [Compound 2m]
3. NS(=O)(=O)c1ccc(NC(=O)CCc2c[nH]c3ccccc23)cc1 [Compound 2d]

Solution:
1. 6.17
2. 7.41
3. 8.15

Provide pKi values for the following items, in order.
1. NS(=O)(=O)c1cccc(NC(=O)c2ccc3cc[nH]c3c2)c1 [Compound 2j]
2. NS(=O)(=O)c1ccc(NC(=O)c2ccc3[nH]ccc3c2)cc1 [Compound 2f]

Solution:
1: 7.02; 2: 7.80

* * *

biological target: hCA I (Homo sapiens, UniProt P00915); test: stopped flow CO2 hydrase assay, hCA I
Sequence (P00915 whole entry): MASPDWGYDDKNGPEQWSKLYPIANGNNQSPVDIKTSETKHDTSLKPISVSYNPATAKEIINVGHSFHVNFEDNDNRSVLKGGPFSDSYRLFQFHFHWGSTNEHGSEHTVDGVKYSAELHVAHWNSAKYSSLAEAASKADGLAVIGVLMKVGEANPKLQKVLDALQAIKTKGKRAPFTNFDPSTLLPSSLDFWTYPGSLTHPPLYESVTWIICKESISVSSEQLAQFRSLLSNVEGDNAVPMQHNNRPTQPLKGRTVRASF
pKi: −log10 of the molar value.
Assign TRUE to entries whose pKi meets or exceeds 6; assign FALSE to the rest.

>>> label_class("NS(=O)(=O)c1ccc(NC(=O)c2ccc3[nH]ccc3c2)cc1")
"FALSE"
>>> label_class("NS(=O)(=O)c1ccc(O)c(NC(=O)c2ccc3cc[nH]c3c2)c1")
"FALSE"
>>> label_class("NS(=O)(=O)c1cccc(NC(=O)c2ccc3cc[nH]c3c2)c1")
"FALSE"
>>> label_class("NS(=O)(=O)c1ccc(CCNC(=O)CCc2c[nH]c3ccccc23)cc1")
"TRUE"
>>> label_class("NS(=O)(=O)c1ccccc1NC(=O)c1ccc2cc[nH]c2c1")
"FALSE"
>>> label_class("NS(=O)(=O)c1ccc(C(=O)Nc2ccc3[nH]ccc3c2)cc1 [Compound 2o, N-(1H-indol-5-yl)-4-sulfamoylbenzamide]")
"TRUE"

Please look at the following compound next.
Problem: For this compound, is measured pKi 6 or higher? NS(=O)(=O)c1ccc(CCNC(=O)c2ccc3[nH]ccc3c2)cc1
Solution: TRUE

* * *

Give pKi for every item shown.
molecular target: UniProtKB Q16790
Give bare numbers, as −log10 of the molar value.

>>> measured_value("NS(=O)(=O)c1ccc(O)c(NC(=O)c2ccc3cc[nH]c3c2)c1")
6.37
>>> measured_value("NS(=O)(=O)c1ccc(O)c(NC(=O)CCc2c[nH]c3ccccc23)c1")
6.54
>>> measured_value("NS(=O)(=O)c1ccc(C(=O)Nc2ccc3[nH]ccc3c2)cc1 [Compound 2o, N-(1H-indol-5-yl)-4-sulfamoylbenzamide]")
6.77
>>> measured_value("NS(=O)(=O)c1ccc(CCNC(=O)CCc2c[nH]c3ccccc23)cc1")
6.65
>>> measured_value("NS(=O)(=O)c1ccc(CCNC(=O)c2ccc3cc[nH]c3c2)cc1")
6.56

Turning to the following compound.
Problem: Identify measured pKi associated with NS(=O)(=O)c1ccc(O)c(NC(=O)c2ccc3[nH]ccc3c2)c1
Solution: 6.55
